- target-under-test: recombinant HcProRS (Homo sapiens)
- Construct: SUMO (N, cleaved yes); made in house; host or cells: E. coli Rosetta 2 (DE3) pLysS
- protocol-description: fluorescence-based thermal shift assay (TSA)
- Type: binding
- condition-notes: 100 µM compound, 3.45 µM HcProRS, absence of Pro; difference of Tm with and without compound
- Description: Compound binding usually helps to stabilize the protein due to protein-ligand interactions, resulting in an increase of the melting temperature (Tm) of the target protein during the thermal denaturation process. […] The ∆Tm was calculated based on the difference between the Tm values of HcProRS with and without compound. […] In a second-tier characterization, the Tm-based EC50 values of these five hits were determined. […]
Answer each item with its documented ∆Tm without L-Pro.

Answered examples (3):
# compound, ∆Tm without L-Pro
data = [
    ("NC(=O)c1nccnc1NCc1cccc(Cl)c1", "−0.77 °C"),
    ("NC(=O)c1cnccn1 [PZA, pyrazinamide]", "−0.09 °C"),
    ("COc1ccc(CNc2nccnc2C(N)=O)c(OC)c1", "−0.07 °C"),
]

Task item: I would be grateful if you could share the reported ∆Tm without L-Pro for NC(=O)c1nccnc1NCc1ccccc1F .
Reply: −0.69 °C

----------
- target-under-test: recombinant HcProRS (Homo sapiens, UniProt P07814)
- Construct: SUMO (N, cleaved yes); made in house; host or cells: E. coli Rosetta 2 (DE3) pLysS
- Sequence (P07814 1001-1512): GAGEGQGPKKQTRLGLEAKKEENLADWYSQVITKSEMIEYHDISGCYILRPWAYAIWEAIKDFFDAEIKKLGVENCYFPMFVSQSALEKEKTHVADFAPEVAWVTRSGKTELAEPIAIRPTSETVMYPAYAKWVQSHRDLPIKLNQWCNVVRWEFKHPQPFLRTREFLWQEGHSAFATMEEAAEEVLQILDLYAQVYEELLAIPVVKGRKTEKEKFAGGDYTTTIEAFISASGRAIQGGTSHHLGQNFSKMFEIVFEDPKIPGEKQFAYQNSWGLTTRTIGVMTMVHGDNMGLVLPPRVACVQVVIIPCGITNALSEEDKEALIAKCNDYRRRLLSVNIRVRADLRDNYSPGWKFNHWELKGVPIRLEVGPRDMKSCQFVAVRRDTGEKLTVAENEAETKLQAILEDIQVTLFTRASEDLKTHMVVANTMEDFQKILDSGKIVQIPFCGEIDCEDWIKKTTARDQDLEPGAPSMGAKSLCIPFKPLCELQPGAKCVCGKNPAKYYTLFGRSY
- protocol-description: fluorescence-based thermal shift assay (TSA)
- Assay type: binding
- condition-notes: 1 mM Pro, 3.45 µM HcProRS; read-out: EC50 (Tm-based) with 1 mM L-Pro
assay-readout: log10(EC50) (log10 of the value in µM)
Heads up, the numbers here are log10 of EC50 in µM units.

Here is how some molecules turned out for log10(EC50).
# molecule, log10(EC50)
records = [
    ("O=C(NCc1ccccc1Cl)c1nccnc1NCc1ccccc1Cl [3b]", 0.58),
    ("NC(=O)c1nccnc1NCc1ccccc1C(F)(F)F [4j]", 1.18),
    ("O=C(NC1Cc2ccccc2C1)c1nccnc1NC(=O)C1CCCCC1 [2a, reference compound]", 0.57),
]

For every item below, please supply its log10(EC50).
1. Cc1ccccc1CNC(=O)c1nccnc1NCc1ccccc1C [3c]
2. NC(=O)c1nccnc1NCc1ccccc1Cl [4h]
3. Cc1ccccc1CNc1nccnc1C(N)=O [4d]

Reply:
1. 0.87
2. 1.13
3. 1.96
